assay-method-text: Toxicity in 4 weeks old Abca4(-/-)/Rdh8 (-/-) mouse model of intense light-induced retinal degeneration at 1 mg dosed via gavage under dark for 24 hrs before exposure to 10000 lux bright light for 1 hr by SDOCT and ERG analysis
Type: organism-based
assay-context: in vivo, po
reported-property: Activity

| smiles-data | Activity |
| --- | --- |
| CC(/C=C/C=C(/c1ccc2ccccc2c1)C(C)(C)C)=C\CN | Toxic |
| COc1ccc(C(=C\C=C\C(C)=C\CN)/C=C/c2ccc(O)cc2)cc1 | Non-Toxic |
| CC1=C(/C=C/C(=C/C=C/C(C)=C/CN)C(C)(C)C)C(C)(C)CCC1 | Non-Toxic |
| CC(C)(C)C(=C\C=C\CN)/C=C/C1=CCCCC1 | Toxic |
| CC(/C=C/C=C(/C=C/c1ccccc1)C(C)(C)C)=C\CN | Toxic |

I'd like to know its Activity. The compound in question is COc1ccc(C(=C\C=C\C(C)=C\CN)/C=C/C2=CCCCC2)cc1
Non-Toxic

---

assay-method-text: Toxicity in 4 weeks old Abca4(-/-)/Rdh8 (-/-) mouse model of intense light-induced retinal degeneration at 1 mg dosed via gavage under dark for 24 hrs before exposure to 10000 lux bright light for 1 hr by SDOCT and ERG analysis
Assay type: organism-based
assay-context: in vivo, po
reported-property: Activity

Study these solved cases before continuing.
| smiles-data | reported-property | experimental-result |
| --- | --- | --- |
| CC1=C(/C=C/C(C)=C/C=C/C(C)=C/CN)C(C)(C)CCC1 | Activity | Non-Toxic |
| CC(/C=C/C=C(/C=C/C1=CCCCC1)C(C)(C)C)=C\CN | Activity | Toxic |
| CC1=C(/C=C/C(=C/C=C/C(C)=C/CN)C(C)(C)C)CCCC1 | Activity | Non-Toxic |
| CC1=C(/C=C/C=C/C=C/C=C/CN)C(C)(C)CCC1 | Activity | Non-Toxic |
| CC(/C=C/C=C(/C=C/c1ccc(C(F)(F)F)cc1)c1ccccc1)=C\CN | Activity | Toxic |

Now consider a different compound.
I'd like to know its Activity. The compound in question is CC(/C=C/C1=CCCCC1)=C\C=C\C(C)=C\CN
Non-Toxic
